Each item that follows carries a reported inhibition at 1.1 µM.
# Test system: HIV-1 protease (Human immunodeficiency virus type 1 group M subtype B)
# Test details: biochemical
# Experimental conditions: read-out: HIV-1 Protease % Inhib, dose 1.100 uM
Metric name: inhibition at 1.1 µM (%)

INSERT INTO assay_data (compound, measure_unit, measured_result) VALUES
  ('O=c1oc2c(c(O)c1C(c1ccccc1)C1CC1)CCCCC2C(O)C1CC1 (stereo not drawn)', '%', 71.4),
  ('CC(C)CC1CCCCCc2c1oc(=O)c(C(c1ccccc1)C1CC1)c2O (stereo not drawn)', '%', 98.7),
  ('CC(C)C(c1cccc(NS(=O)(=O)c2cccnc2)c1)c1c(O)c2c(oc1=O)CCCCCC2 (stereo not drawn)', '%', 89.2),
  ('CC(C)CC(c1cccc(NS(=O)(=O)c2cn(C)cn2)c1)c1c(O)c2c(oc1=O)CCCCCC2 (stereo not drawn)', '%', 91.2),
  ('CC(C)S(=O)(=O)Nc1cccc(C(c2c(O)c3c(oc2=O)CCCCCC3)C2CC2)c1 (stereo not drawn)', '%', 86.6),
  ('CC(C)(C)OC(=O)NCC(=O)Nc1cccc(C(c2c(O)c3c(oc2=O)CCCCCC3)C2CC2)c1 (single isomer, unassigned) [Example 238]', '%', 96.3),
  ('O=c1oc2c(c(O)c1C(c1cccc(NS(=O)(=O)c3cc(C(F)(F)F)cc(C(F)(F)F)c3)c1)C1CC1)CCCCCC2 (stereo not drawn)', '%', 71.5),
  ('O=C(COCc1ccccc1)Nc1cccc(S(=O)(=O)Nc2cccc(C(c3c(O)c4c(oc3=O)CCCCCC4)C3CC3)c2)c1 (stereo not drawn)', '%', 88.9),
  ('CC(=O)Nc1ccc(S(=O)(=O)Nc2cccc(C(c3c(O)c4c(oc3=O)CCCCCC4)C3CC3)c2)cc1 (stereo not drawn)', '%', 85.2),
  ('Cn1cnc(S(=O)(=O)Nc2cccc([C@@H](c3c(O)c4c(oc3=O)CCCCCC4)C3CC3)c2)c1', '%', 101),
  ('O=c1oc2c(c(O)c1C(c1cccc(NS(=O)(=O)c3cc(Cl)c(Cl)s3)c1)C1CC1)CCCCCC2 (stereo not drawn)', '%', 105),
  ('O=c1oc2c(c(O)c1C(c1ccccc1)C1CC1)CCCCCC2CC1CCOC1 (stereo not drawn)', '%', 97.9),
  ('Nc1cccc(C(c2c(O)c3c(oc2=O)CCCCCC3)C2CC2)c1 (stereo not drawn)', '%', 46.2),
  ('O=c1oc2c(c(O)c1C(c1cccc(NS(=O)(=O)c3ccccc3)c1)C1CC1)CCCCCC2 (stereo not drawn)', '%', 93.1),
  ('O=c1oc2c(c(O)c1C(c1cccc(NS(=O)(=O)c3ccc(Cl)c(Cl)c3Cl)c1)C1CC1)CCCCCC2 (stereo not drawn)', '%', 91.4);
